Examples of compounds with documented IC50 follow.
target: JAK3 (Homo sapiens (Human), UniProt P52333); experiment: Enzyme assay (Assay Example^a 1), JAK3; type: biochemical; conditions: ATP 100 μM; Table^a 154
Sequence (P52333 whole entry): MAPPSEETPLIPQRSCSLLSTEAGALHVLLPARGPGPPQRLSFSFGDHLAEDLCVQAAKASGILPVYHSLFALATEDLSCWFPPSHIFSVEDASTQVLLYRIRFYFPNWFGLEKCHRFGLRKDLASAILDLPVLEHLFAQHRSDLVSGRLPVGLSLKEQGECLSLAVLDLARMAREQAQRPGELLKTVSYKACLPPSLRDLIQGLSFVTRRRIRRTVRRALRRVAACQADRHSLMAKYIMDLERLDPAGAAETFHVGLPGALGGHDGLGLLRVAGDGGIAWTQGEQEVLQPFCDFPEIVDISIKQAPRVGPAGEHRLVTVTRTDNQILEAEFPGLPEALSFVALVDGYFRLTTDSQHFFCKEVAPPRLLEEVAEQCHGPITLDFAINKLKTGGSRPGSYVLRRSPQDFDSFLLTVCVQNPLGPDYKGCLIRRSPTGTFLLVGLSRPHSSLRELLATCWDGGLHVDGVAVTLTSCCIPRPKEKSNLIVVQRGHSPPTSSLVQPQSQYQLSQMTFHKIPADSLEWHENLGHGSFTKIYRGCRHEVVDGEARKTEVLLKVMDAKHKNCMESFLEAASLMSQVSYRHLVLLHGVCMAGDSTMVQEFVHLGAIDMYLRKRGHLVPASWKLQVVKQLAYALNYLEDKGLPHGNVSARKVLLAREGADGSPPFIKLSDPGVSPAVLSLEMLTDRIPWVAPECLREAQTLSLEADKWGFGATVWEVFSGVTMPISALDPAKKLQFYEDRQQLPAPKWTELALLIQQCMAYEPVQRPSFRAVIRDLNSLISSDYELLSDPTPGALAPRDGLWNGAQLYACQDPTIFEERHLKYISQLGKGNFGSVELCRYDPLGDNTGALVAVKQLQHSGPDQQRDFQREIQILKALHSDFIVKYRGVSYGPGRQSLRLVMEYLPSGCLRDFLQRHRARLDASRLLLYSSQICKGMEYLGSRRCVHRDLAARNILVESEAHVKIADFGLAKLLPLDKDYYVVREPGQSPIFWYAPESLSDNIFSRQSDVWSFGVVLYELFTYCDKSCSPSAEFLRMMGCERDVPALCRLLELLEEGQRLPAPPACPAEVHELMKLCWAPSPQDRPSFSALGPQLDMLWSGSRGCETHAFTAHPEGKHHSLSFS
endpoint_name: IC50 (µM)

[[record]]
compound = "Clc1ccc(CN[C@H]2CC[C@H](c3nnn4cnc5[nH]ccc5c34)CC2)cc1 [197b]"
endpoint_name = "IC50"
censoring_operator = "="
recorded_result = 0.52

[[record]]
compound = "Fc1ccc(CCN[C@H]2CC[C@H](c3nnn4cnc5[nH]ccc5c34)CC2)cc1 [201b]"
endpoint_name = "IC50"
censoring_operator = "="
recorded_result = 0.41

[[record]]
compound = "C[C@@H](O)CNC[C@H]1CC[C@H](c2nnn3cnc4[nH]ccc4c23)CC1"
endpoint_name = "IC50"
censoring_operator = "="
recorded_result = 0.32

[[record]]
compound = "N#Cc1ccc(NC[C@H]2CC[C@H](c3nnn4cnc5[nH]ccc5c34)CC2)cc1"
endpoint_name = "IC50"
censoring_operator = ">"
recorded_result = 1

[[record]]
compound = "c1ccc(CCNC[C@H]2CC[C@H](c3nnn4cnc5[nH]ccc5c34)CC2)cc1"
endpoint_name = "IC50"
censoring_operator = "="
recorded_result = 0.61

[[record]]
compound = "Fc1ccccc1CN1CCC(c2nnn3cnc4[nH]ccc4c23)CC1"
endpoint_name = "IC50"
censoring_operator = "="
recorded_result = 0.36

[[record]]
compound = "Fc1ccc(CN2CCC(c3nnn4cnc5[nH]ccc5c34)CC2)c(F)c1"
endpoint_name = "IC50"
censoring_operator = "="
recorded_result = 0.23

[[record]]
compound = "c1ccc(CCCN[C@H]2CC[C@@H](c3nnn4cnc5[nH]ccc5c34)CC2)cc1 [136a]"
endpoint_name = "IC50"
censoring_operator = ">"
recorded_result = 1


----------
molecular target: JAK2 (Homo sapiens (Human), UniProt O60674); assay: JAK2 enzyme assay (Assay Example^b 1); details: IC50 (μM) JAK2, Table^b 79; ATP 100 μM
endpoint_name: IC50 (µM)

[[record]]
compound = "C[C@@H]1CCN(C(=O)CC(F)(F)F)C[C@@H]1n1ccc(=O)c2cnc3[nH]ccc3c21 (racemic)"
endpoint_name = "IC50"
recorded_result = 0.0094

[[record]]
compound = "C[C@@H]1CCN(C(=O)CC#N)C[C@@H]1n1ccc(=O)c2cnc3[nH]ccc3c21 (racemic)"
endpoint_name = "IC50"
recorded_result = 0.004

[[record]]
compound = "C[C@@H]1CCN(C(=O)CC2CC2)C[C@@H]1n1ccc(=O)c2cnc3[nH]ccc3c21 (racemic)"
endpoint_name = "IC50"
recorded_result = 0.075

[[record]]
compound = "O=C1NCc2cnc3[nH]ccc3c2N1C1CCCCC1"
endpoint_name = "IC50"
recorded_result = 0.02


----------
biological target: Tyk2 (Homo sapiens (Human), UniProt P29597); test: Enzyme assay (Assay Example^a 1), Tyk2; format: biochemical; conditions: ATP 100 μM
Sequence (P29597 whole entry): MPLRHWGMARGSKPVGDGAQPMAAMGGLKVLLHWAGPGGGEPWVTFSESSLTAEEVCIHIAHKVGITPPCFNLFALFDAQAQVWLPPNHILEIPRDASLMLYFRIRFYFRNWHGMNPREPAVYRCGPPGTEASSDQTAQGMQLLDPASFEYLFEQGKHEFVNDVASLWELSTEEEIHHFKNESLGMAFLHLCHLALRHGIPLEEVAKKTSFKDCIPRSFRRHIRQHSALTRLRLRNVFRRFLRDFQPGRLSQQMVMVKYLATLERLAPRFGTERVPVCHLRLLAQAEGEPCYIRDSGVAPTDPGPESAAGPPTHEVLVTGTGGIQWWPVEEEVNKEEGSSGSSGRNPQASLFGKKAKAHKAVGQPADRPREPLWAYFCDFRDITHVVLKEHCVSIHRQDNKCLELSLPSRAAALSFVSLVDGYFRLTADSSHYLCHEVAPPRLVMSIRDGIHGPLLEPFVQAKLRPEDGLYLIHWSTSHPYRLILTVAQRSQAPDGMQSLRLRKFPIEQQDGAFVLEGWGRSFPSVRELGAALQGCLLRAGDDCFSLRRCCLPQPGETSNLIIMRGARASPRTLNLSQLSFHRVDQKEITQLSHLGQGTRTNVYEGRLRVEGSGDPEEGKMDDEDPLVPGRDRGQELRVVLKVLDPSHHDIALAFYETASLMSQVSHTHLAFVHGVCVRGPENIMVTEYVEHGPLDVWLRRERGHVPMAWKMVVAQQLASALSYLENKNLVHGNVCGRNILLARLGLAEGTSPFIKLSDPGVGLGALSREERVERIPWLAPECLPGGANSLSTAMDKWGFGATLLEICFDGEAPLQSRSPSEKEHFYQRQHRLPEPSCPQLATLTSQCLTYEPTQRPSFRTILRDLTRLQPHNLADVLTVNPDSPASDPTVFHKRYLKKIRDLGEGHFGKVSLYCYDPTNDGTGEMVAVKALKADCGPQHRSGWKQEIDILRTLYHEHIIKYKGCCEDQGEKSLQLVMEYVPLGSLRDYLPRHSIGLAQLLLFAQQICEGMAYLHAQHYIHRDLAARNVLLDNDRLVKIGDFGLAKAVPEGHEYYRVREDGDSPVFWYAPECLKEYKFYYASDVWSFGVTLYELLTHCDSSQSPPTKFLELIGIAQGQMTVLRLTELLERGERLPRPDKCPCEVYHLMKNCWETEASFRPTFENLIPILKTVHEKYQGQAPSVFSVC
Threshold check on IC50: strictly below 0.2 µM is rule met; on or above 0.2 µM is rule not met.

[[record]]
compound = "N#CCCN(CCC#N)C1CCC(c2nnn3cnc4[nH]ccc4c23)CC1 (centres unmarked)"
label = "rule met"

[[record]]
compound = "CC(C)(C)OC(=O)N[C@@H]1CCN(C[C@H]2CC[C@H](c3nnn4cnc5[nH]ccc5c34)CC2)C1"
label = "rule not met"

[[record]]
compound = "N#C/C(=C\\N1CCC(c2nnn3cnc4[nH]ccc4c23)CC1)c1ccccc1"
label = "rule not met"

[[record]]
compound = "OC(CN[C@H]1CC[C@H](c2nnn3cnc4[nH]ccc4c23)CC1)(c1cccnc1)C(F)(F)F (some centres unmarked) [385b]"
label = "rule not met"

[[record]]
compound = "FC1(F)Oc2ccc(CN3CCC(c4nnn5cnc6[nH]ccc6c45)CC3)cc2O1"
label = "rule not met"

[[record]]
compound = "CC(C)(C)NC[C@H]1CC[C@H](c2nnn3cnc4[nH]ccc4c23)CC1"
label = "rule not met"

[[record]]
compound = "Brc1csc(CN2CCC(c3nnn4cnc5[nH]ccc5c34)CC2)c1"
label = "rule not met"

[[record]]
compound = "CN(CCC#N)c1ccc(CN2CCC(c3nnn4cnc5[nH]ccc5c34)CC2)cc1"
label = "rule not met"

[[record]]
compound = "Fc1ccc(C2(NC[C@H]3CC[C@H](c4nnn5cnc6[nH]ccc6c45)CC3)CC2)cc1"
label = "rule not met"

[[record]]
compound = "O=C(CC(F)(F)F)N(CC(F)(F)F)C[C@H]1CC[C@H](c2nnn3cnc4[nH]ccc4c23)CC1"
label = "rule not met"

[[record]]
compound = "OC12CC3CC(C1)CC(c1nnn4cnc5[nH]ccc5c14)(C3)C2"
label = "rule met"

[[record]]
compound = "CS(=O)(=O)NC[C@H]1CC[C@H](c2nnn3cnc4[nH]ccc4c23)CC1"
label = "rule met"

[[record]]
compound = "CC(c1ccccc1)N1CCC(c2nnn3cnc4[nH]ccc4c23)CC1 (racemic)"
label = "rule not met"

[[record]]
compound = "Clc1n[nH]c2ccc(CN3CCC(c4nnn5cnc6[nH]ccc6c45)CC3)cc12"
label = "rule not met"

[[record]]
compound = "O=C(NC1CC1)[C@H]1CC[C@H](c2nnn3cnc4[nH]ccc4c23)CC1"
label = "rule not met"

[[record]]
compound = "c1cc2c(ncn3nnc([C@H]4CC[C@H](CNC5COC5)CC4)c23)[nH]1"
label = "rule not met"


----------
target: JAK1 (Homo sapiens (Human), UniProt P23458); assay: Enzyme assay (Assay Example^a 1), JAK1; type: biochemical; settings: ATP 100 μM; Table^a 154
Threshold check on IC50: strictly below 0.02 µM is rule met; on or above 0.02 µM is rule not met.

[[record]]
molecule = "Fc1ccc2c(c1)CCN2C[C@H]1CC[C@H](c2nnn3cnc4[nH]ccc4c23)CC1 [compound 179]"
target_under_test = "JAK1 (Homo sapiens (Human), UniProt P23458)"
label = "rule not met"

[[record]]
molecule = "Fc1ccc(CN2CCC(c3nnn4cnc5[nH]ccc5c34)CC2)cc1F [compound 166]"
target_under_test = "JAK1 (Homo sapiens (Human), UniProt P23458)"
label = "rule met"

[[record]]
molecule = "c1ccc(CN2CCCC(c3nnn4cnc5[nH]ccc5c34)C2)cc1 (racemic) [compound 16]"
target_under_test = "JAK1 (Homo sapiens (Human), UniProt P23458)"
label = "rule not met"

[[record]]
molecule = "Fc1ccc(NC[C@H]2CC[C@H](c3nnn4cnc5[nH]ccc5c34)CC2)c(C(F)(F)F)c1 [compound 117]"
target_under_test = "JAK1 (Homo sapiens (Human), UniProt P23458)"
label = "rule not met"

[[record]]
molecule = "O=C1NCCN1CCNC[C@H]1CC[C@H](c2nnn3cnc4[nH]ccc4c23)CC1 [compound 191]"
target_under_test = "JAK1 (Homo sapiens (Human), UniProt P23458)"
label = "rule met"

[[record]]
molecule = "FC(F)(F)Oc1ccc(CNC[C@H]2CC[C@H](c3nnn4cnc5[nH]ccc5c34)CC2)cc1 [compound 110]"
target_under_test = "JAK1 (Homo sapiens (Human), UniProt P23458)"
label = "rule met"

[[record]]
molecule = "CN(C)S(=O)(=O)c1ccc2c(c1)CCN2C[C@H]1CC[C@H](c2nnn3cnc4[nH]ccc4c23)CC1 [compound 190]"
target_under_test = "JAK1 (Homo sapiens (Human), UniProt P23458)"
label = "rule not met"

[[record]]
molecule = "O=C(Nc1nncs1)N1CCCC(c2nnn3cnc4[nH]ccc4c23)C1 (racemic) [compound 20]"
target_under_test = "JAK1 (Homo sapiens (Human), UniProt P23458)"
label = "rule met"


----------
target: JAK3 (Homo sapiens (Human), UniProt P52333); test: Enzyme assay (Assay Example^a 1), JAK3; assay type: biochemical
Examples of compounds with documented IC50 follow.
endpoint_name: IC50 (µM)

[[record]]
compound = "CC1CCCCC1c1nnn2cnc3[nH]ccc3c12 (stereo not drawn)"
unit = "µM"
censoring_operator = "="
recorded_result = 0.055

[[record]]
compound = "Cc1cc(C#N)ccc1NC[C@H]1CC[C@H](c2nnn3cnc4[nH]ccc4c23)CC1"
unit = "µM"
censoring_operator = ">"
recorded_result = 1

[[record]]
compound = "N#Cc1ccc(N[C@H]2CC[C@H](c3nnn4cnc5[nH]ccc5c34)CC2)cc1 [134b]"
unit = "µM"
censoring_operator = "="
recorded_result = 0.66


----------
molecular target: JAK2 (Homo sapiens (Human)); assay: JAK2 enzyme assay (Assay Example^b 1); settings: IC50 (μM) JAK2, Table^b 79; ATP 100 μM
Examples of compounds with documented IC50 follow.
endpoint_name: IC50 (µM)

[[record]]
compound = "C[C@@H]1CCN(S(=O)(=O)CC(F)(F)F)C[C@@H]1n1ccc(=O)c2cnc3[nH]ccc3c21 (racemic)"
unit = "µM"
recorded_result = 0.033

[[record]]
compound = "O=c1ncn(C2CCCCC2)c2c1cnc1[nH]ccc12"
unit = "µM"
recorded_result = 0.56

[[record]]
compound = "c1cc2c3c(cnc2[nH]1)COCN3C1CCCCC1"
unit = "µM"
recorded_result = 1.9

